# assay.target: T1, Human CD137 ECD (human)
# T1 construct: also called human CD137 extracellular domain; recombinant human CD137
# T1 sequence (chain, as listed by the source limits assumed): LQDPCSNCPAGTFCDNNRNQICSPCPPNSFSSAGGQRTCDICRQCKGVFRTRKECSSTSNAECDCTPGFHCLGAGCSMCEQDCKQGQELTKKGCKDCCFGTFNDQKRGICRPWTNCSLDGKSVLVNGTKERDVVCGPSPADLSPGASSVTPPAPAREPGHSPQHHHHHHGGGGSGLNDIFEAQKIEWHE
# test.details: SPR Biacore T200, 37 C, Ab captured on anti-human Fc, antigen as analyte;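 also: recombinant human CD137 flowed over antibodies held by amine-coupled anti-human Fc on a CM4 chip, run in ACES pH 7.4 buffer with 150 mM NaCl and 0.05% Tween 20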
reported.property: kon (M⁻¹ s⁻¹)
Give the value in M⁻¹ s⁻¹ but do not write M⁻¹ s⁻¹ after it.

Use the examples below as a reference point.
Consider the binder shown here: H1610L0939 (antibody, V domains shown, Dual-Ig, IgG; also called H1610L939; dBBDu183H1610/dBBDu072L0939) VH: QVQLVESGGGLVQPGRSLRLSCAASGFVFSNVWMHWVRQAPGKGLEWVAQIKDKWNAYAAYYAPSVKGRFTISRDDSKNSIYLQMNSLKTEDTAVYYCHYIHYASASTLLPAEGIDAWGQGTTVTVSS VL: DIVMTQSPLSLPVTPGEPASISCQPSQEVVHMNRNTYLHWYQQKPGQAPRLLIYKVSNVFPGVPDRFSGSGSGTDFTLKISRVEAEDVGVYYCAQGTHHPFTFGQGTKLEIK What is its recorded kon? 13000

Further, for H1610L0581 (antibody, V domains shown, Dual-Ig, IgG; also called H1610L581; dBBDu183H1610/dBBDu072L0581) VH: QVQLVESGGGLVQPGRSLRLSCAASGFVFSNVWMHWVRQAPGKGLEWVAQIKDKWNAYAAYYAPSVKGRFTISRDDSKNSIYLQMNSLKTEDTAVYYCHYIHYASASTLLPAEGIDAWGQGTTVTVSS VL: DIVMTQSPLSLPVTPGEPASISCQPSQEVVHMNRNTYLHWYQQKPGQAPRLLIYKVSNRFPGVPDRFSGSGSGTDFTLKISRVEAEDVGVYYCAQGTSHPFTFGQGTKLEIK ? 10700

***
Request the reported kon associated with H1647L0581 (antibody, V domains shown, Dual-Ig, IgG; also called dBBDu183H1647/dBBDu072L0581) VH: QVQLVESGGGLVQPGRSLRLSCAASGFKFSNTWFHWVRQAPGKGLEWVAQIKDYYNDYAAYYAPSVKGRFTISRDDSKNSIYLQMNSLKTEDTAVYYCHYVHYASASTLLPAEGVDAWGQGTTVTVSS VL: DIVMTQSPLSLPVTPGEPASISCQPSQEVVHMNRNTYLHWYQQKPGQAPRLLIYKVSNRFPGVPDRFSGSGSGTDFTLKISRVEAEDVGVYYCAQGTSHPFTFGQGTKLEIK 9980
